Experiment summary: endothelial E-selectin expression blockers – imaging, HUVEC, immunofluorescence, MLSMR starter and 10KST1 sets, primary screen (AID 487);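 further: 100% = median nuclei count of all wells on the same plate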
Experimental setup: HUVEC TNFalpha-induced E-selectin immunofluorescence imaging, at 2 µM; measured here: cell number, toxicity
Measurement name: nuclei count (%)
Just the number in %, nothing appended.

As a guide, the following entries are already answered.
nuclei count for `CN(CC(=O)Nc1ccccc1Cl)C(=O)COC(=O)CNC(=O)c1ccc(Br)o1` ? 107

And the next one, CCc1ncc(C(O)c2cccc(OC)c2OC)n1C (stereo unspecified) ? 126

And the next one, COC(=O)C1=C(C)Nc2nnnn2C1c1ccc(Cl)cc1Cl (stereo unspecified) ? 105

Could you now consider this next compound?
nuclei count for CCCOc1ccc(C2c3c(oc4ccccc4c3=O)C(=O)N2CCCN2CCOCC2)cc1 (stereo unspecified) ? 101

----------
Experiment summary: Primary imaging screen for DUSP6 inhibitors that restore phospho-Erk in transfected HeLa cells, chemical complementation (AID 609)
Experimental setup: HeLa MKP-3 transfected, phospho-Erk imaging KS statistic; measured here: nuclear c-Myc green intensity z-score; at 10 µM; cells stimulated with TPA for 15 min
Give Satisfied when the value for z-score is at least -0.1. Give Not satisfied when it is less.

Threshold query (z-score >= -0.1) on `CC1(C)CC(=O)C=C(NCCO)C1` Not satisfied

And the next one, `CC(C)CCOc1ccc(Cl)cc1CN1CCOCC1` ? Not satisfied

And the next one, `O=C(O)c1ccc(COCC(F)(F)C(F)F)o1` ? Not satisfied

Next:
Threshold query (z-score >= -0.1) on `O=C(NCCO)C1(c2ccccc2)CCCC1` Satisfied

And the next one, `COc1ccc(CN(CCN(C)C)c2ccccn2)cc1` ? Not satisfied

----------
Experiment summary: endothelial E-selectin expression blockers – imaging, HUVEC, immunofluorescence, MLSMR starter and 10KST1 sets, primary screen (AID 487);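 further: 100% = median nuclei count of all wells on the same plate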
Experimental setup: HUVEC TNFalpha-induced E-selectin immunofluorescence imaging, at 2 µM; measured here: cell number, toxicity
nuclei count values by entry
Just the number in %, nothing appended.

As a guide, the following entries are already answered.
nuclei count for `CCc1nc(N)nc(N)c1-c1ccc(Cl)cc1` ? 108

And the next one, Cc1ccc(S(=O)(=O)NCC2CCC(C(=O)NCCCN3CCOCC3)CC2)cc1 (stereo not given) ? 112

And the next one, `Cc1cc(NC(=O)CSc2nc3ccsc3c(=O)n2NC(=O)c2ccccc2)no1` ? 117

And the next one, `COc1cccc(-c2cc(C(=O)Nc3cc(OC)c(OC)c(OC)c3)no2)c1` ? 97.2

And the next one, `CN(c1ccccc1)S(=O)(=O)c1cc(C(=O)N2CCN(c3ccccn3)CC2)ccc1Cl` ? 108

Next:
nuclei count for `COCCCNC(=O)CCc1nc(-c2ccccc2Cl)no1` ? 132

And the next one, Cc1ccc(NC(=O)C2CCCNC2=O)nc1 (stereo not given) ? 82.2

And the next one, `CCCn1c(SCC(=O)Nc2nnc(-c3ccccc3)s2)nnc1-c1ccccn1` ? 105

And the next one, `CCn1cc(C(=O)Nc2cc3c(cc2NC(C)=O)OCCO3)c(=O)c2ccc(C)nc21` ? 115

And the next one, `O=C(Cn1cnc2sc(-c3ccccc3)cc2c1=O)N1CCOCC1` ? 114

And the next one, `COc1ccccc1CNC(=O)CCn1c(=O)[nH]c2ccsc2c1=O` ? 110

And the next one, `CC(=O)Nc1c(I)c(NC(C)=O)c(I)c(C(=O)O)c1I` ? 126

And the next one, `O=c1c(-c2ccc(F)cc2)coc2c3c(ccc12)OCCO3` ? 124

And the next one, `CCCN(CCC)S(=O)(=O)c1ccc(C(=O)Nc2nnc(-c3cccc(OC)c3)o2)cc1` ? 107

And the next one, `COCCCNC(=O)c1ccc2c(c1)OCO2` ? 108

And the next one, `Cc1ccc(CNC(=O)C2CCN(S(=O)(=O)c3c(C)noc3C)CC2)cc1` ? 104

And the next one, C=CCC(NCc1ccco1)c1ccc(OC)cc1OC (stereo not given) ? 108

And the next one, `COc1ccc(-c2ccc(-c3nnc(-c4ccncc4)o3)cc2)cc1` ? 99.2
